Target: T1, recombinant human CD3ε-ECD His protein (human, UniProt P07766 23-126)
T1 construct: extracellular domain; also called human CD3ε-His; CD3ε antigen protein; not shown: His tag
T1 sequence (P07766 23-126): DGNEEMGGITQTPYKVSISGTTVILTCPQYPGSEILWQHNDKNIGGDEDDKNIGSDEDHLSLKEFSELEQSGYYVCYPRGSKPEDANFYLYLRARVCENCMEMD
Test: ELISA, coated antigen

binder	max-OD450 / OD450
8-18.1-H1-L2 humanized antibody (antibody, human IgG1, kappa, V domains shown) VH: EVQLVQSGAEVKKPGASVKVSCKASGYTFTMNTMHWVRQAPGQRLEWMGYINPYSGYTKYNQIFKDRVTITADKSASTAYMELSSLRSEDTAVYYCLRGGEGVWGQGTTVTVSS VL: DVVMTQSPLSLPVTLGQPASISCKSSQSLLDSDGKTYLNWLQQRPGQSPRRLIYLVSELGSGVPDRFSGSGSGTDFTLKISRVEAEDVGVYYCWQGTHFPRTFGGGTKVEIKR	3.11
